Attribution: the array DNA melting data of Ke et al. (doi:10.1101/2024.01.08.574731)

Assay: melting temperature; fluorescence melt of hairpins on a sequencing array, two-state fit, raised by 9.35 °C to match UV melts
Conditions: sodium 0.088 M
So basically: Tm at 50 °C or higher? That is 1. Lower than 50 °C? That is 0.

INSERT INTO assay_data (query_sequence, assigned_label) VALUES
  ('GATCAACGCTTTGATC ((((((....))))))', 0),
  ('GCCGGGGGAAACCCCGAC (.(((((....))))).)', 1),
  ('GAGGGCGGAAACACCCCC (.(((.(....).))).)', 0),
  ('GGTTTCGGAAACAAAACC (((((.(....).)))))', 0);
